# System under test: T1, Human 4-1BB extracellular domain recombinant protein (his-tag) (human, UniProt Q07011 24-186)
# T1 construct: extracellular domain; also called Human4-1BB, his-tag; human 4-1BB extracellular region recombinant protein; not shown: his-tag
# Method notes: ELISA, coated human 4-1BB-his 200 ng/well; antibody 3.33 µg/ml

>  <Binder>
137-36 VHH-hFc recombinant antibody (Fc fusion, VHH fragment inserted into vector pFclG with human IgG1 Fc tag, expressed in HEK293F; not shown: human IgG1 Fc tag of the eukaryotic expression vector pFclG) QVQLVESGGGLVQTGGSLTLSCVASGRRFEAYTIGWLRQAPGDLREGVGCIFGGTTFTGYDDSVKGRFTISRDTAKNTVYLRMNNLTSEDTATYYCAAEGRPGQIKGQHGCLTPSWYNYKGQGTQVTVSS

>  <absorbance at 450 nm>
0.454

$$$$
>  <Binder>
137-39 VHH-hFc recombinant antibody (Fc fusion, VHH fragment inserted into vector pFclG with human IgG1 Fc tag, expressed in HEK293F; Preparation had non-specific bands, purity about 30%; not shown: human IgG1 Fc tag of the eukaryotic expression vector pFclG) QVQLVESGGGLVHVGESLTLSCVISGGSSNLYGIGWYRQAPGQERKLVAVLHNEHTTKYLDSVKGRFFVSGDNAKNTLYLHMNNVKVEDTAVYYCNSASGTLAGTGYFASVGPWGQGTLVTVSS

>  <absorbance at 450 nm>
1

$$$$
>  <Binder>
137-12 VHH-hFc recombinant antibody (Fc fusion, VHH fragment inserted into vector pFclG with human IgG1 Fc tag, expressed in HEK293F; not shown: human IgG1 Fc tag of the eukaryotic expression vector pFclG) QVQLVESGGGLVHPGGSLRLSCAASGFTLDDSAIGWFRQAPGKEREGVSCRSRSGYMTKYADSVKGRFTISRYNANNTMYLQMNSLKPEDTAVYYCATTRRGYCSGYETKGVDYWGQGIQVTVSS

>  <absorbance at 450 nm>
0.433

$$$$
>  <Binder>
137-18 VHH-hFc recombinant antibody (Fc fusion, VHH fragment inserted into vector pFclG with human IgG1 Fc tag, expressed in HEK293F; also called CD137-18; not shown: human IgG1 Fc tag of the eukaryotic expression vector pFclG) QVQLVESGGGLVHPGGSLRLSCAASGFIFSLYTMSWVRQAPGKGLEWVSDINSGGDSTDYADSVKGRFTISRDNAKSTLYLQMNSLKPEDTAVYYCAKDYPLGQREDYWGQGTQVTVSS

>  <absorbance at 450 nm>
1.73

$$$$
